System: HOP-62
Test: relative viability (nuclei count vs DMSO), 5 days (fraction); higher = more cells survive
Conditions: first compound 0.3162 µM
Lab note: anything with relative viability below 0.9 is marked YES; values at 0.9 or higher are marked NO.

COMPOUND	DISCRETE_LABEL
CC(C)Oc1cc(Nc2nc(N[C@@H](C)c3ccc(F)cn3)ncc2Cl)n[nH]1 [AZ23] + CC(C)C[C@H](NC(=O)[C@H](Cc1ccccc1)NC(=O)c1cnccn1)B(O)O [Bortezomib] (partner 0.002 µM)	YES
CC(C)Oc1cc(Nc2nc(N[C@@H](C)c3ccc(F)cn3)ncc2Cl)n[nH]1 [AZ23] + C[C@]1(O)C[C@@H](c2nc(-c3ccc4ccc(-c5ccccc5)nc4c3)c3c(N)nccn32)C1 [Linsitinib] (partner 1 µM)	NO
CC(C)Oc1cc(Nc2nc(N[C@@H](C)c3ccc(F)cn3)ncc2Cl)n[nH]1 [AZ23] + CC(=O)Nc1cccc(-n2c(=O)n(C3CC3)c(=O)c3c(Nc4ccc(I)cc4F)n(C)c(=O)c(C)c32)c1 [Trametinib] (partner 0.02 µM)	YES
CC(C)Oc1cc(Nc2nc(N[C@@H](C)c3ccc(F)cn3)ncc2Cl)n[nH]1 [AZ23] + COc1cc2c(Oc3ccc(NC(=O)C4(C(=O)Nc5ccc(F)cc5)CC4)cc3F)ccnc2cc1OCCCN1CCOCC1 [Foretinib] (partner 0.25 µM)	NO
CC(C)Oc1cc(Nc2nc(N[C@@H](C)c3ccc(F)cn3)ncc2Cl)n[nH]1 [AZ23] + N=C(N)NC(=N)NCCc1ccccc1 [Phenformin] (partner 250 µM)	YES
CC(C)Oc1cc(Nc2nc(N[C@@H](C)c3ccc(F)cn3)ncc2Cl)n[nH]1 [AZ23] + Nc1nc2[nH]cc(CCc3ccc(C(=O)N[C@@H](CCC(=O)O)C(=O)O)cc3)c2c(=O)[nH]1 [Pemetrexed] (partner 0.2 µM)	YES

----------
relative viability reference
Tested on: NCI-H1975
Test: relative viability (nuclei count vs DMSO), 5 days (fraction); higher = more cells survive
Conditions: first compound 0.03162 µM

MOLECULE	relative viability
CC(C)Oc1cc(Nc2nc(N[C@@H](C)c3ccc(F)cn3)ncc2Cl)n[nH]1 [AZ23] + C[C@]1(O)C[C@@H](c2nc(-c3ccc4ccc(-c5ccccc5)nc4c3)c3c(N)nccn32)C1 [Linsitinib] (partner 1 µM)	1.06
CC(C)Oc1cc(Nc2nc(N[C@@H](C)c3ccc(F)cn3)ncc2Cl)n[nH]1 [AZ23] + COc1cc2c(Oc3ccc(NC(=O)C4(C(=O)Nc5ccc(F)cc5)CC4)cc3F)ccnc2cc1OCCCN1CCOCC1 [Foretinib] (partner 0.25 µM)	1.14
CC(C)Oc1cc(Nc2nc(N[C@@H](C)c3ccc(F)cn3)ncc2Cl)n[nH]1 [AZ23] + CC(=O)c1c(C)c2cnc(Nc3ccc(N4CCNCC4)cn3)nc2n(C2CCCC2)c1=O [Palbociclib] (partner 0.5 µM)	0.703
CC(C)Oc1cc(Nc2nc(N[C@@H](C)c3ccc(F)cn3)ncc2Cl)n[nH]1 [AZ23] + CS(=O)(=O)CCNCc1ccc(-c2ccc3ncnc(Nc4ccc(OCc5cccc(F)c5)c(Cl)c4)c3c2)o1 [Lapatinib] (partner 2 µM)	0.961

----------
Test system: NCI-H1793
Experiment: relative viability (nuclei count vs DMSO), 5 days (fraction); higher = more cells survive
Details: first compound 2.53 µM
Lab note: anything with relative viability below 0.5 is marked fulfilled; values at 0.5 or higher are marked not fulfilled.

COMPOUND	DISCRETE_LABEL
CCCCCCCCCCCC1=C(O)C(=O)C=C(O)C1=O [Embelin] + CS(=O)(=O)CCNCc1ccc(-c2ccc3ncnc(Nc4ccc(OCc5cccc(F)c5)c(Cl)c4)c3c2)o1 [Lapatinib] (partner 2 µM)	not fulfilled
CCCCCCCCCCCC1=C(O)C(=O)C=C(O)C1=O [Embelin] + N=C(N)NC(=N)NCCc1ccccc1 [Phenformin] (partner 250 µM)	fulfilled
CCCCCCCCCCCC1=C(O)C(=O)C=C(O)C1=O [Embelin] + O=C(CCCCCCC(=O)Nc1ccccc1)NO [Vorinostat] (partner 1 µM)	not fulfilled
CCCCCCCCCCCC1=C(O)C(=O)C=C(O)C1=O [Embelin] + Cc1nc(Nc2ncc(C(=O)Nc3c(C)cccc3Cl)s2)cc(N2CCN(CCO)CC2)n1 [Dasatinib] (partner 0.075 µM)	fulfilled
